All values here come from PubChem BioAssay (NCI).

# TGI values compiled below
tested on: IGROV1 ovarian; assay: NCI tumour cell line growth inhibition, 48 h

These recorded examples may help you get a feel for the data.
# molecule, assay.readout, reported
data = [
    ("COc1ccc(NC(=O)C(C)Oc2ccc(OCC3CCCCC3)cc2)cc1 (centres undefined)", "TGI", "> 100 µM"),
    ("Cc1ccc(C(=O)/C=C/c2cccc([N+](=O)[O-])c2)cc1", "TGI", "> 100 µM"),
    ("CCCCCCCCCCCCCCCCOP(=O)(O)OCC(NC(C)=O)C(=O)O (centres undefined)", "TGI", "62.2 µM"),
]

Could you now consider this next molecule?
**Q:** What measured TGI goes with COc1ccc2oc(C(=O)O)c3c2c1CCC3CCC(=O)O (centres undefined) ?
**A:** > 100 µM
